# assayedSystem: Gamma-secretase
# testDetails: Inhibition of gamma secretase-mediated amyloid beta40 production in human SH-SY5Y cells overexpressing beta-APP C-terminal SPA4CT by electrochemiluminescent analysis
# Type: cell-based
measuredAttribute: IC50 (µM)

Here are 4 molecules together with their reported answers.
molecule: COc1cc(-c2cn(C3CC(C)(C)CCNC3=O)nn2)ccc1-n1cnc(C)c1 (racemic)
IC50 [µM]: 7.42
--
molecule: COc1cc(-c2cn(C3CC(C(F)(F)F)CCNC3=O)nn2)ccc1-n1cnc(C)c1 (racemic)
IC50 [µM]: 9.1
--
molecule: COc1cc(-c2cn(CC(=O)N(CC(F)(F)F)c3ccc4ccccc4c3)nn2)ccc1-n1cnc(C)c1
IC50 [µM]: 0.66
--
molecule: COc1cc(-c2cn([C@H]3C[C@@H](C(C)(C)C)CCN(Cc4ccccc4)C3=O)nn2)ccc1-n1cnc(C)c1
IC50 [µM]: 0.42

A. COc1cc(-c2cn([C@H]3CC[C@H](c4ccccc4)CN(Cc4ccccc4)C3=O)nn2)ccc1-n1cnc(C)c1
B. COc1cc(-c2cn(CC(=O)N(CC(F)(F)F)c3ccc4c(c3)CCC4)nn2)ccc1-n1cnc(C)c1
C. COc1cc(-c2cn(CC(=O)N(Cc3ccc(F)cc3)C3C4CC5CC(C4)CC3C5)nn2)ccc1-n1cnc(C)c1 (stereo not drawn)
In: Rank order required: IC50, descending. Output the labels ranked as instructed.
Out: C, B, A

* * *

# assayedSystem: Gamma-secretase
# testDetails: Inhibition of gamma secretase-mediated amyloid beta42 production in human SH-SY5Y cells overexpressing beta-APP C-terminal SPA4CT by electrochemiluminescent analysis
# Type: cell-based
measuredAttribute: IC50 (nM)

Here are 5 molecules together with their reported answers.
molecule: COc1cc(-c2cn([C@H]3C[C@@H](C(C)(C)C)CCN(CC(C)(C)C)C3=O)nn2)ccc1-n1cnc(C)c1
measurementUnit: nM
IC50: 130

molecule: COc1cc(-c2cn(C3CC[C@H]4CCCC[C@@H]4NC3=O)nn2)ccc1-n1cnc(C)c1 (mixture of isomers)
measurementUnit: nM
IC50: 620

molecule: COc1cc(-c2cn([C@H]3CCCCN(CC(F)(F)F)C3=O)nn2)ccc1-n1cnc(C)c1
measurementUnit: nM
IC50: 300

molecule: COc1cc(-c2cn([C@H]3C[C@@H]([Si](C)(C)C)CCN(Cc4ccccc4)C3=O)nn2)ccc1-n1cnc(C)c1
measurementUnit: nM
IC50: 70

molecule: COc1cc(-c2cn(CC(=O)N(c3ccccc3)C3CCCCC3)nn2)ccc1-n1cnc(C)c1
measurementUnit: nM
IC50: 620

A. COc1cc(-c2cn(CC(=O)N(CC(F)(F)F)c3ccc4ccccc4c3)nn2)ccc1-n1cnc(C)c1
B. COc1cc(-c2cn([C@H]3C[C@@H](C(C)(C)C)CCN(CC45CC6CC(CC(C6)C4)C5)C3=O)nn2)ccc1-n1cnc(C)c1
C. COc1cc(-c2cn(CC(=O)Nc3cccc4ccccc34)nn2)ccc1-n1cnc(C)c1
In: In this exercise, place the 3 molecules in ascending sequence of their recorded IC50. Output the labels ranked as instructed.
Out: A, B, C
(A: 80 nM, B: 240 nM, C: 610 nM)

* * *

These records show IC50 for UniProtKB Q12809.
Sequence (Q12809 whole entry): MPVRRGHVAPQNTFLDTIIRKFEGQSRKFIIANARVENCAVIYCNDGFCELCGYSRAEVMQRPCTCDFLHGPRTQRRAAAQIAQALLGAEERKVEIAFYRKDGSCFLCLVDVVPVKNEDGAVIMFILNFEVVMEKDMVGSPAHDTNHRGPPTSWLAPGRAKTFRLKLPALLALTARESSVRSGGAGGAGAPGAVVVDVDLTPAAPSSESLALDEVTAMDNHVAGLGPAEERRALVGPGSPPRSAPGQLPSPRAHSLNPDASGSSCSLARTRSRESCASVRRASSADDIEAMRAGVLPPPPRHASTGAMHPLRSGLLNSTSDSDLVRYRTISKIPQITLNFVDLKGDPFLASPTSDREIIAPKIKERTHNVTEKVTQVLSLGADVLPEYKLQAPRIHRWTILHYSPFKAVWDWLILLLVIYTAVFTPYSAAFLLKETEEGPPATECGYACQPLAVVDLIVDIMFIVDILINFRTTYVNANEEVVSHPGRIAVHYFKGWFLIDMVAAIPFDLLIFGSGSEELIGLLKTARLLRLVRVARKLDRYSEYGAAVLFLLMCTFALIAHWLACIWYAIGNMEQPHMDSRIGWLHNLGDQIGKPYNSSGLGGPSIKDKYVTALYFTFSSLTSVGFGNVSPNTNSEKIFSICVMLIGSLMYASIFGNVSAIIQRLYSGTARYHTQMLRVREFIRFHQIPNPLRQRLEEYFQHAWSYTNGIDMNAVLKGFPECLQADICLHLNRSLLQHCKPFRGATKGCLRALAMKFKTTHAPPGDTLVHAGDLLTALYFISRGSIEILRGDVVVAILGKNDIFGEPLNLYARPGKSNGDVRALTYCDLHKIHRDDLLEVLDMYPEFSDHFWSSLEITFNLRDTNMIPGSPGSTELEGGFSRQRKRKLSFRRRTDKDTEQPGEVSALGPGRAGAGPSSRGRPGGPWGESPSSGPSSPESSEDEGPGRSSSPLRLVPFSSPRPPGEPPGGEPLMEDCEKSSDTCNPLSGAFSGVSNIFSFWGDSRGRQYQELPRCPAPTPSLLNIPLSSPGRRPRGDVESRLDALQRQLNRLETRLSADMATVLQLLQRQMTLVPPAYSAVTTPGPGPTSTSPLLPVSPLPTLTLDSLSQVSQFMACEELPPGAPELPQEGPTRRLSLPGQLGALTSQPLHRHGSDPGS
Expressed in µM, but write only the number.

compound: COc1cc(-c2cn(CC(=O)N(Cc3ccc(F)cc3)C3C4CC5CC(C4)CC3C5)nn2)ccc1-n1cnc(C)c1 (stereo unspecified)
IC50 [µM]: 0.25
--
compound: COc1cc(-c2cn(C3CC(C)(C)CCNC3=O)nn2)ccc1-n1cnc(C)c1 (racemic)
IC50 [µM]: 20.8
--
compound: COc1cc(-c2cn(C3CC(C4CCCCC4)CCNC3=O)nn2)ccc1-n1cnc(C)c1 (racemic)
IC50 [µM]: 3.68

In: Observed IC50 on UniProtKB Q12809 for COc1cc(-c2cn(CC(=O)N3CCC(c4nc5ccccc5o4)CC3)nn2)ccc1-n1cnc(C)c1 , please.
Out: 10.3

* * *

# assayedSystem: Gamma-secretase
# testDetails: Inhibition of gamma secretase-mediated amyloid beta40 production in human SH-SY5Y cells overexpressing beta-APP C-terminal SPA4CT by electrochemiluminescent analysis
# Assay type: cell-based
pIC50: −log10 of the molar value.
measuredAttribute: pIC50

compound: COc1cc(-c2cn(CC(=O)N(Cc3ccccc3)[C@H](C)c3ccccc3)nn2)ccc1-n1cnc(C)c1
measuredAttribute: pIC50
number: 5.52
--
compound: COc1cc(-c2cn(C3CC(C(F)(F)F)CNC3=O)nn2)ccc1-n1cnc(C)c1 (racemic)
measuredAttribute: pIC50
number: 5.21
--
compound: COc1cc(-c2cn(CC(=O)N(c3ccccc3)C3CCCCC3)nn2)ccc1-n1cnc(C)c1
measuredAttribute: pIC50
number: 5.06
--
compound: COc1cc(-c2cn(CC(=O)Nc3ccc4c(c3)OC(F)(F)O4)nn2)ccc1-n1cnc(C)c1
measuredAttribute: pIC50
number: 5.68

P. COc1cc(-c2cn(CC(=O)N(Cc3ccccc3)CC(F)(F)F)nn2)ccc1-n1cnc(C)c1
Q. COc1cc(-c2cn(CC(=O)N([C@H](C)c3ccccc3)[C@H](C)c3ccccc3)nn2)ccc1-n1cnc(C)c1
R. COc1cc(-c2cn(C3C(=O)NC4CCC3C4)nn2)ccc1-n1cnc(C)c1 (racemic)
S. COc1cc(-c2cn([C@H]3C[C@@H](c4ccccc4)CCN(CC(F)(F)F)C3=O)nn2)ccc1-n1cnc(C)c1
In: In this exercise, place the 4 compounds in ascending sequence of their recorded pIC50. Output the labels ranked as instructed.
Out: R, Q, P, S

* * *

# assayedSystem: Gamma-secretase
# testDetails: Inhibition of gamma secretase-mediated amyloid beta42 production in human SH-SY5Y cells overexpressing beta-APP C-terminal SPA4CT by electrochemiluminescent analysis
# Format: cell-based
measuredAttribute: IC50 (nM)

Here are 2 molecules together with their reported answers.
molecule: COc1cc(-c2cn([C@H]3C[C@@H](C(C)(C)C)CCN(CC(F)(F)F)C3=O)nn2)ccc1-n1cnc(C)c1
assayedSystem: Gamma-secretase
measurementUnit: nM
IC50: 9

molecule: COc1cc(-c2cn([C@H]3CC[C@H](c4ccccc4)CN(Cc4ccccc4)C3=O)nn2)ccc1-n1cnc(C)c1
assayedSystem: Gamma-secretase
measurementUnit: nM
IC50: 80

1. COc1cc(-c2cn([C@H]3C[C@@H](C(F)(F)F)CN(CC(F)(F)F)C3=O)nn2)ccc1-n1cnc(C)c1
2. COc1cc(-c2cn(C3CC(C(F)(F)F)CCNC3=O)nn2)ccc1-n1cnc(C)c1 (racemic)
In: In terms of reported IC50, does 1 or 2 have the smaller number? Write down the label of the entry you select.
Out: 1
(1: 290 nM, 2: 1270 nM)

I. COc1cc(-c2cn(C3CC([Si](C)(C)C)CCNC3=O)nn2)ccc1-n1cnc(C)c1 (racemic)
II. COc1cc(-c2cn(C3CC(C(F)(F)F)CNC3=O)nn2)ccc1-n1cnc(C)c1 (racemic)
In: Would you let me know which has the greater IC50 value, I or II ? Write down the label of the entry you select.
Out: II
(II: 1110 nM, I: 330 nM)

1. COc1cc(-c2cn(CC(=O)N(CC(F)(F)F)c3ccc4c(c3)CCC4)nn2)ccc1-n1cnc(C)c1
2. COc1cc(-c2cn([C@H]3C[C@@H](c4ccccc4)CCN(CC(F)(F)F)C3=O)nn2)ccc1-n1cnc(C)c1
In: Would you let me know which has the greater IC50 value, 1 or 2 ? Write down the label of the entry you select.
Out: 1

1. COc1cc(-c2cn(CC(=O)N(CC(F)(F)F)c3cccc4ccccc34)nn2)ccc1-n1cnc(C)c1
2. COc1cc(-c2cn(CC(=O)N(Cc3ccccc3)CC(F)(F)F)nn2)ccc1-n1cnc(C)c1
In: In terms of reported IC50, does 1 or 2 have the smaller number? Write down the label of the entry you select.
Out: 1

* * *

# assayedSystem: Gamma-secretase
# testDetails: Inhibition of gamma secretase-mediated amyloid beta42 production in human SH-SY5Y cells overexpressing beta-APP C-terminal SPA4CT by electrochemiluminescent analysis
# Assay type: cell-based
measuredAttribute: IC50 (nM)

molecule: COc1cc(-c2cn(CC(=O)N([C@H](C)c3ccccc3)[C@H](C)c3ccccc3)nn2)ccc1-n1cnc(C)c1
IC50 / nM: 430
//
molecule: COc1cc(-c2cn([C@H]3C[C@@H](C(F)(F)F)CCN(Cc4ccccc4)C3=O)nn2)ccc1-n1cnc(C)c1
IC50 / nM: 80
//
molecule: COc1cc(-c2cn(C3CCCCNC3=O)nn2)ccc1-n1cnc(C)c1 (racemic)
IC50 / nM: 4420
//
molecule: COc1cc(-c2cn(C3CCCC(C(C)(C)C)NC3=O)nn2)ccc1-n1cnc(C)c1 (racemic)
IC50 / nM: 480
//
molecule: COc1cc(-c2cn(CC(=O)N(Cc3ccccc3)[C@H](C)c3ccccc3)nn2)ccc1-n1cnc(C)c1
IC50 / nM: 230
//
molecule: COc1cc(-c2cn(CC(=O)N(c3ccccc3)c3ccccc3)nn2)ccc1-n1cnc(C)c1
IC50 / nM: 1630
//
molecule: COc1cc(-c2cn(C3CC(C4CCCCC4)CCNC3=O)nn2)ccc1-n1cnc(C)c1 (racemic)
IC50 / nM: 160
//
molecule: COc1cc(-c2cn(CC(=O)Nc3ccc4c(c3)OC(F)(F)O4)nn2)ccc1-n1cnc(C)c1
IC50 / nM: 450

a. COc1cc(-c2cn([C@H]3C[C@@H](C(C)(C)C)CCN(Cc4ccccc4)C3=O)nn2)ccc1-n1cnc(C)c1
b. COc1cc(-c2cn(CC(=O)NC3C4CC5CC(C4)CC3C5)nn2)ccc1-n1cnc(C)c1 (configuration not stated)
c. COc1cc(-c2cn(C3CC(C)(C)CCNC3=O)nn2)ccc1-n1cnc(C)c1 (racemic)
In: In this exercise, place the 3 molecules in ascending sequence of their recorded IC50. Output the labels ranked as instructed.
Out: a, b, c
(a: 80 nM, b: 680 nM, c: 1310 nM)

A. COc1cc(-c2cn(CC(=O)N3CCC(c4nc5ccccc5o4)CC3)nn2)ccc1-n1cnc(C)c1
B. COc1cc(-c2cn(CC(=O)N(C3CCCCC3)C3CCCCC3)nn2)ccc1-n1cnc(C)c1
In: Would you let me know which has the greater IC50 value, A or B ? Write down the label of the entry you select.
Out: A

Cited source for all entries: ChEMBL document CHEMBL2016515
